# Tested on: SN12C
# PROTOCOL_DETAILS: NCI tumour cell line growth inhibition, 48 h
Calls of active or inactive are those of the source. Rule as the data show it: active = GI50 up to about 1.1 µM and inactive = higher.
MEASUREMENT_TYPE: GI50

[
  {
    "COMPOUND": "OCC1C2CCC3(OCCO3)C12 (stereo unspecified)",
    "MEAS_VALUE": "> 100 µM (inactive)"
  },
  {
    "COMPOUND": "O=[N+]([O-])c1ccc(N2CCC(CCCC3CCN(c4ccc([N+](=O)[O-])cc4[N+](=O)[O-])CC3)CC2)c([N+](=O)[O-])c1",
    "MEAS_VALUE": "32.1 µM (inactive)"
  },
  {
    "COMPOUND": "O=C1CSc2ccncc2N1",
    "MEAS_VALUE": "> 100 µM (inactive)"
  },
  {
    "COMPOUND": "C=C1C(=O)OC2/C=C(/C)C(OC(C)=O)CC(O)/C(C)=C\\C(OC(=O)/C(C)=C\\C)C12 (stereo unspecified)",
    "MEAS_VALUE": "50.6 µM (inactive)"
  },
  {
    "COMPOUND": "CCN(CC)CCn1ncc2c(N)ncnc21",
    "MEAS_VALUE": "> 100 µM (inactive)"
  }
]

Next:
INPUT: Could you share which GI50 value was measured for COc1cc2c3c(c1)c1cc(OC)c(OC)cc1c[n+]3CC2 ?
OUTPUT: 1.53 µM (inactive)

----------
# Tested on: A498
# PROTOCOL_DETAILS: NCI tumour cell line growth inhibition, 48 h
The source made the active and inactive calls. Rule as the data show it: active = GI50 up to about 1.1 µM and inactive = higher.
MEASUREMENT_TYPE: GI50

# example entries with known answers
[
  {
    "MOLECULE": "Cc1ccc(-c2cc(-c3ccco3)c(C#N)c(=S)[nH]2)cc1",
    "GI50": "36.3 µM (inactive)"
  },
  {
    "MOLECULE": "COc1ccc(OC)c([N+](=O)[O-])c1-c1nc2sc(C)cn2c1/C=N/N=C(N)N",
    "GI50": "34.7 µM (inactive)"
  },
  {
    "MOLECULE": "O=[N+]([O-])c1ccc(N2CCC(CCCC3CCN(c4ccc([N+](=O)[O-])cc4[N+](=O)[O-])CC3)CC2)c([N+](=O)[O-])c1",
    "GI50": "17 µM (inactive)"
  },
  {
    "MOLECULE": "N=C(N)C(/N=N\\c1ccccc1)C(=N)N (stereo not given)",
    "GI50": "54.5 µM (inactive)"
  }
]

INPUT: Using the record for C[C@]12CCC(=O)C(O)=C1CC[C@@H]1[C@@H]2CC[C@]2(C)C(=O)CC[C@@H]12 , report its GI50.
OUTPUT: > 84.5 µM (inactive)

----------
Consider the following molecules; for each one, report its GI50.
# System: SK-MEL-2
# PROTOCOL_DETAILS: NCI tumour cell line growth inhibition, 48 h
The source made the active and inactive calls. No stated cut-off is given here; in the data, active = GI50 up to about 1.1 µM and inactive = higher.

For orientation, consider the following solved cases.
[
  {
    "MOLECULE": "CC(C)c1ccc2c(c1)/C(=C1/Nc3ccccc3C1=O)C(=O)N2",
    "MEAS_VALUE": "14.3 µM (inactive)"
  },
  {
    "MOLECULE": "c1nc(N2CC2)c2cnn(C3CCCCO3)c2n1 (configuration not stated)",
    "MEAS_VALUE": "> 100 µM (inactive)"
  },
  {
    "MOLECULE": "CC1=CC(C)(C)[C@H]2O[C@@]3(O)C[C@]4(C)[C@H]5C[C@@](C(C)C)(O[C@H]4c4ccoc4)O[C@H]4[C@]5(C3)O[C@@]1(O)[C@]24O",
    "MEAS_VALUE": "> 100 µM (inactive)"
  },
  {
    "MOLECULE": "COC1CC(OC)C(O)C(CO)O1 (configuration not stated)",
    "MEAS_VALUE": "> 100 µM (inactive)"
  },
  {
    "MOLECULE": "CC(C)(C)c1cc(C(O)(C(F)(F)F)C(F)(F)F)c2c(c1)C(C(F)(F)F)(C(F)(F)F)OC(C(C)(C)C)N2 (configuration not stated)",
    "MEAS_VALUE": "2.55 µM (inactive)"
  }
]

Hello, I would appreciate it if you could give GI50 for each entry below.
1. [O-]/[N+](=N\c1ccccc1CO)c1ccccc1CO
2. COc1ccc(NC(=O)CC(=O)n2nc(C)c(/N=N/c3cccc(C)c3)c2C)cc1
3. Cc1ccc(/N=N/c2c(O)ccc3ccccc23)c(C)c1
4. COc1cc(C2c3cc4c(cc3OC(N3CCCC3)C2C)OCO4)cc(OC)c1OC (configuration not stated)
5. Cc1[nH]c2ccccc2c1C1=CC(=O)N(c2ccccc2)C1=O
6. Cn1c(=O)c2nc(CCCCc3nc4c(=O)n(C)c(=S)n(C)c4[nH]3)[nH]c2n(C)c1=S

OUTPUT:
1. > 100 µM (inactive)
2. > 100 µM (inactive)
3. > 100 µM (inactive)
4. 0.394 µM (active)
5. 13.6 µM (inactive)
6. > 100 µM (inactive)
